Tested on: carrageenin-induced hind paw edema
experimental.details: Anti-inflammatory activity (carrageenin-induced hind paw edema in rats)
Format: in vivo, Male Wistar rats
test.context: Rattus norvegicus, po, 2 h; 5 mg/kg p.o., two hours; read-out: Inhibitory rate, two hours after the carrageenin injection
Listed below: inhibition in vivo at 5 mg/kg values for each entry.
// return numeric value only (unit: %, not printed)

// known answers, use as guide
CCOC(=O)C(C)c1ccc2c(c1)SCC1CCCCC1C2=O (centres unmarked); 42.2
CC(C(=O)OCCc1ccccn1)c1ccc2c(c1)SCC1CCCCC1C2=O (centres unmarked); 27.6
CC(C(=O)NO)c1ccc2c(c1)SCC1CCCCC1C2=O (centres unmarked); 31.5
CCCCOC(=O)C(C)c1ccc2c(c1)SCC1CCCCC1C2=O (centres unmarked); 31.8
CC(C(=O)OCCN1CCOCC1)c1ccc2c(c1)SCC1CCCCC1C2=O (centres unmarked); 28.9
CC(C(=O)OCCc1ccccc1)c1ccc2c(c1)SCC1CCCCC1C2=O (centres unmarked); 44.8
CC(C(=O)NCC(=O)O)c1ccc2c(c1)SCC1CCCCC1C2=O (centres unmarked); 43.9
CC(C(=O)OCC(=O)c1ccccc1)c1ccc2c(c1)SCC1CCCCC1C2=O (centres unmarked); 33.2

Item: CC(C(=O)OCc1ccccn1)c1ccc2c(c1)SCC1CCCCC1C2=O (centres unmarked) | inhibition in vivo at 5 mg/kg: 30.8

Lab note: CC(C(=O)OCCOCCO)c1ccc2c(c1)SCC1CCCCC1C2=O (centres unmarked) gave inhibition in vivo at 5 mg/kg of 43.9

In plain terms, C=CCOC(=O)C(C)c1ccc2c(c1)SCC1CCCCC1C2=O (centres unmarked) has a documented inhibition in vivo at 5 mg/kg of 34.3

All figures here come from patent US4356186A.
